Quick reference for MIC among some compounds
# Tested on: Pseudomonas aeruginosa
# experimentSummary: Antibacterial activity against Pseudomonas aeruginosa 14-16 after 18 to 24 hrs by two-fold serial dilution method
# Assay type: functional
recordedEndpoint: MIC

>>> df
                                   compound  reportedvalue
0  CO/N=C1/CN(c2c(F)cc3c(=O)c(C(=O)O)cn(C4CC4)c3c2OC)CC1CNC1CC1 (configuration not stated)      128 µg/mL
1  CC1(CNC2CC2)CN(c2nc3c(cc2F)c(=O)c(C(=O)O)cn3C2CC2)C/C1=N/OCc1ccccc1 (configuration not stated)      128 µg/mL
2  CO/N=C1/CN(c2nc3c(cc2F)c(=O)c(C(=O)O)cn3-c2nc(N)c(F)cc2F)CC1(C)CNC1CC1 (configuration not stated)    > 128 µg/mL
3  CCO/N=C1/CN(c2nc3c(cc2F)c(=O)c(C(=O)O)cn3C2CC2)CC1(C)CNC1CC1 (configuration not stated)       32 µg/mL
4  CO/N=C1/CN(c2nc3c(cc2F)c(=O)c(C(=O)O)cn3[C@@H]2C[C@@H]2F)CC1(C)CNC1CC1 (some centres not stated)       32 µg/mL
5  CCO/N=C1/CN(c2c(F)cc3c(=O)c(C(=O)O)cn([C@@H]4C[C@@H]4F)c3c2OC)CC1CNC1CC1 (some centres not stated)       32 µg/mL
6  CO/N=C1/CN(c2nc3c(cc2F)c(=O)c(C(=O)O)cn3C2CC2)CC1(C)CNC1CC1 (configuration not stated)       64 µg/mL
